biological target: LRRK2 wild type (recombinant human, catalytic domain amino acids 970-2527, GST-tagged) (Homo sapiens, UniProt Q5S007); construct: The wild type used was recombinant human, catalytic domain (amino acids 970-2527) GST-tagged, expressed in insect cells; GST; test: LRRK2 wild type protein kinase assay ([γ-33P] ATP, peptide substrate […]), IC50; conditions: LRRK2 (variant not given); read-out: Potency score, LRRK2 IC50
Sequence (Q5S007 970-2527): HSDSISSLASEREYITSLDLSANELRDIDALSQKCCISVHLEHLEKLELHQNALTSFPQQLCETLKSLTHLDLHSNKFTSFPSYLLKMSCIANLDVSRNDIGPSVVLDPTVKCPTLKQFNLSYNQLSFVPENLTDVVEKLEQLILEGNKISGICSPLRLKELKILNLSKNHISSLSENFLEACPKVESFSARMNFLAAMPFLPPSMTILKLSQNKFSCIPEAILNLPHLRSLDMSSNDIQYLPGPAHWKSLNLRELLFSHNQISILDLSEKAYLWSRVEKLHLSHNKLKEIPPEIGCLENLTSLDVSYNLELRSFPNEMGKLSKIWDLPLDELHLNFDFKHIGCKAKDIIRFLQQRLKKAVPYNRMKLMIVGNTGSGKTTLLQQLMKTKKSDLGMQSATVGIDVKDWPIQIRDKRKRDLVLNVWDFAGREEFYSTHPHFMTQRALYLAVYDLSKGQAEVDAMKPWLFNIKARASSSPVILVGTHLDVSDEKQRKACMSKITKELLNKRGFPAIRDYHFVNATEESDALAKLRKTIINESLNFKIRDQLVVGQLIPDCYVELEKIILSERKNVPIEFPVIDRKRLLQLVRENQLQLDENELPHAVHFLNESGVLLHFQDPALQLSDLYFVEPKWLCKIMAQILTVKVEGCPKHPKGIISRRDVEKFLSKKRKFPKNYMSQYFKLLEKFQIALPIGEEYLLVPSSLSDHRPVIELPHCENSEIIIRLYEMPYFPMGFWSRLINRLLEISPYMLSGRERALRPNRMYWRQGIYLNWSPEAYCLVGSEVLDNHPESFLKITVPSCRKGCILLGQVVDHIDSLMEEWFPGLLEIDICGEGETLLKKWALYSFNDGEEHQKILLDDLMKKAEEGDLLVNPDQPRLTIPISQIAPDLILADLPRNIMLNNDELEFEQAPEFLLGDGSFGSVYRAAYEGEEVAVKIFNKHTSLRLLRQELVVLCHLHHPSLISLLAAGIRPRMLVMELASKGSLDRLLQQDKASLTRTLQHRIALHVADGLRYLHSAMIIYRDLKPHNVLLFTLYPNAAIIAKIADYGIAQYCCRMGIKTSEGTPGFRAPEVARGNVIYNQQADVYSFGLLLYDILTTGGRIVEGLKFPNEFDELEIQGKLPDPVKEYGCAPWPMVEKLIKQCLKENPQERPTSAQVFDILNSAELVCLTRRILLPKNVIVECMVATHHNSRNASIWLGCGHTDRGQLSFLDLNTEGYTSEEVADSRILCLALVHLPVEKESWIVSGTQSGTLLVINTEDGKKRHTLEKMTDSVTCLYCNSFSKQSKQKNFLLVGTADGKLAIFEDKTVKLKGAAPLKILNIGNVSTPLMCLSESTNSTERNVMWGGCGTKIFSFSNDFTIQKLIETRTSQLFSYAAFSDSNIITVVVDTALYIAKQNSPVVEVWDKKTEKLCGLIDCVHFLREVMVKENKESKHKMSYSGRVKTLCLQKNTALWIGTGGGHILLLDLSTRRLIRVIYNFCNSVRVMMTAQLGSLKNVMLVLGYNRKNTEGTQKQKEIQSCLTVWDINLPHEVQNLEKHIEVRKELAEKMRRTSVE
outcome measure: IC50

Cc1n[nH]c2ccnc(NC3CCCN(C)C3)c12 (centres unmarked) [Example 31] ... 1 to 10 µM
O=C(CCc1n[nH]c2ccnc(NC3CCCCC3)c12)N1CCC(F)(F)CC1 [Example 168] ... 0.1 to 1 µM
Cc1n[nH]c2ccnc(NCCc3ccc(Cl)cc3)c12 [Example 329] ... 0.1 to 1 µM
Cc1n[nH]c2ccnc(-c3nccs3)c12 [Example 130] ... 0.1 to 1 µM
Cc1n[nH]c2ccnc(OC3CCCCC3)c12 [Example 114] ... < 0.1 µM

For each of the molecules below, note its IC50.
1. Cc1n[nH]c2ccnc(N3CCc4ccccc4C3)c12 [Example 12]
2. CC1CN(C(=O)c2ccc(CCc3n[nH]c4ccnc(NC5CCCCC5)c34)cc2)C1 [Example 251]
3. Cc1n[nH]c2ccnc(CC3CCCCC3)c12 [Example 126]
4. Cc1n[nH]c2ccnc(NC3CCC3)c12 [Example 22]
5. O=C(CCc1n[nH]c2ccnc(NC3CCCCC3)c12)N1CCC(O)(c2ccccc2)CC1 [Example 176]

1: 1 to 10 µM; 2: < 0.1 µM; 3: 1 to 10 µM; 4: 0.1 to 1 µM; 5: 0.1 to 1 µM

Give IC50 for Cc1n[nH]c2ccnc(NC3CCCCC3)c12 [Example 3]
0.1 to 1 µM
